Quick list: Change in mass [%], Sorption per entry.
- experimentNotes: Hygroscopy, dynamic vapour sorption (DVS) isotherms (Example 15)
- Format: physicochemical
- conditionDetails: 80% Relative humidity
propertyLabel: Change in mass [%], Sorption (%)

# compound, propertyLabel, readoutNumber
data = [
    ("O=C(O)c1cc(NC(=O)C2(c3ccc(C(F)(F)F)cc3F)CC2)ccc1-c1cnn(C2CCC2)c1 [free acid]", "Change in mass [%], Sorption", 0.29),
    ("N=C(N)NCCC[C@H](N)C(=O)O.O=C(O)c1cc(NC(=O)C2(c3ccc(C(F)(F)F)cc3F)CC2)ccc1-c1cnn(C2CCC2)c1 [Arginine Salt]", "Change in mass [%], Sorption", 13.25),
    ("O=C([O-])c1cc(NC(=O)C2(c3ccc(C(F)(F)F)cc3F)CC2)ccc1-c1cnn(C2CCC2)c1.[K+] [Potassium salt]", "Change in mass [%], Sorption", 24.21),
    ("O=C([O-])c1cc(NC(=O)C2(c3ccc(C(F)(F)F)cc3F)CC2)ccc1-c1cnn(C2CCC2)c1.[Na+] [Sodium salt]", "Change in mass [%], Sorption", 20.22),
]

---

- experimentNotes: Hygroscopy, dynamic vapour sorption (DVS) isotherms (Example 15)
- Assay type: physicochemical
- conditionDetails: 40% Relative humidity
propertyLabel: Change in mass [%], Desorption

# molecule, result
rows = [
    ("O=C(O)c1cc(NC(=O)C2(c3ccc(C(F)(F)F)cc3F)CC2)ccc1-c1cnn(C2CCC2)c1 [free acid]", "0.29%"),
    ("O=C([O-])c1cc(NC(=O)C2(c3ccc(C(F)(F)F)cc3F)CC2)ccc1-c1cnn(C2CCC2)c1.[Na+] [Sodium salt]", "3.33%"),
    ("O=C([O-])c1cc(NC(=O)C2(c3ccc(C(F)(F)F)cc3F)CC2)ccc1-c1cnn(C2CCC2)c1.[K+] [Potassium salt]", "11.85%"),
    ("N=C(N)NCCC[C@H](N)C(=O)O.O=C(O)c1cc(NC(=O)C2(c3ccc(C(F)(F)F)cc3F)CC2)ccc1-c1cnn(C2CCC2)c1 [Arginine Salt]", "10.09%"),
]

---

- experimentNotes: Hygroscopy, dynamic vapour sorption (DVS) isotherms (Example 15)
- Type: physicochemical
- conditionDetails: 30% Relative humidity
Form field: Change in mass [%], Sorption (one value per entry).
propertyLabel: Change in mass [%], Sorption

# molecule, result
data = [
    ("O=C(O)c1cc(NC(=O)C2(c3ccc(C(F)(F)F)cc3F)CC2)ccc1-c1cnn(C2CCC2)c1 [free acid]", "0.12%"),
    ("O=C([O-])c1cc(NC(=O)C2(c3ccc(C(F)(F)F)cc3F)CC2)ccc1-c1cnn(C2CCC2)c1.[Na+] [Sodium salt]", "1.92%"),
    ("O=C([O-])c1cc(NC(=O)C2(c3ccc(C(F)(F)F)cc3F)CC2)ccc1-c1cnn(C2CCC2)c1.[K+] [Potassium salt]", "5.53%"),
    ("N=C(N)NCCC[C@H](N)C(=O)O.O=C(O)c1cc(NC(=O)C2(c3ccc(C(F)(F)F)cc3F)CC2)ccc1-c1cnn(C2CCC2)c1 [Arginine Salt]", "2.98%"),
]

---

- experimentNotes: Hygroscopy, dynamic vapour sorption (DVS) isotherms (Example 15)
- Format: physicochemical
- conditionDetails: 20% Relative humidity
# Change in mass [%], Desorption listing for each entry below

# molecule, unitLabel, Change in mass [%], Desorption
data = [
    ("N=C(N)NCCC[C@H](N)C(=O)O.O=C(O)c1cc(NC(=O)C2(c3ccc(C(F)(F)F)cc3F)CC2)ccc1-c1cnn(C2CCC2)c1 [Arginine Salt]", "%", 12.15),
    ("O=C(O)c1cc(NC(=O)C2(c3ccc(C(F)(F)F)cc3F)CC2)ccc1-c1cnn(C2CCC2)c1 [free acid]", "%", 0.42),
    ("O=C([O-])c1cc(NC(=O)C2(c3ccc(C(F)(F)F)cc3F)CC2)ccc1-c1cnn(C2CCC2)c1.[K+] [Potassium salt]", "%", 21.86),
    ("O=C([O-])c1cc(NC(=O)C2(c3ccc(C(F)(F)F)cc3F)CC2)ccc1-c1cnn(C2CCC2)c1.[Na+] [Sodium salt]", "%", 0.84),
]
